Measured values drawn from patent US8143290B2 for this set.

Biological target: recombinant human GR (Homo sapiens)
Sequence (P04150 1-777): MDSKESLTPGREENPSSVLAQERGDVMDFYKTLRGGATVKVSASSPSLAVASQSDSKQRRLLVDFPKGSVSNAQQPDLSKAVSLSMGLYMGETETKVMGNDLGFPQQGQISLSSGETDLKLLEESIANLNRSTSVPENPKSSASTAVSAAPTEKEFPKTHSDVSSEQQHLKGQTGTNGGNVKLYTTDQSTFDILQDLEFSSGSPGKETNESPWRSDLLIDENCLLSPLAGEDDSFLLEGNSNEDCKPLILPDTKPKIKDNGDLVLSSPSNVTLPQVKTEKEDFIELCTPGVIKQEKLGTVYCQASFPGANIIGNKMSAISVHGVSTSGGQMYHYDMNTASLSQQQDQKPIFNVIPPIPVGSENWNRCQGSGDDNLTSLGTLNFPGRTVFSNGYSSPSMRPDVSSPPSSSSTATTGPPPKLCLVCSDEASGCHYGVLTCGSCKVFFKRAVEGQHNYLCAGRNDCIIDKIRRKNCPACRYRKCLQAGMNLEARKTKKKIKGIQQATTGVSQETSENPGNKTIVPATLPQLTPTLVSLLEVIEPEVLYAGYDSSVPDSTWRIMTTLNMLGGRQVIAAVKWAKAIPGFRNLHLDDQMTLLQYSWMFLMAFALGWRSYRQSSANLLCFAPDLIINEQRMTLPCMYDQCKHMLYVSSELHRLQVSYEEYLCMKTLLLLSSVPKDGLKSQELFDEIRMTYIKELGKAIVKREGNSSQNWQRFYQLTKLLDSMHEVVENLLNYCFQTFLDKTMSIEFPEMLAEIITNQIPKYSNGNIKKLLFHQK
Experiment: Human Glucocorticoid Receptor (GR) Assay, fluorescence polarization
Conditions: GS Red tracer, incubated 2 h at r.t., XLfit model 205, read-out: GRhuFL_FP_v2 Mean IC50
In this section we review reported IC50 values for a set of molecules.

{"MOLECULE": "COc1ccc([C@@H](Oc2ccc3c(cnn3-c3ccc(F)cc3)c2)[C@H](C)NC(=O)C(C)(F)F)cc1F [Example 231]", "IC50": "5.1 nM"}
{"MOLECULE": "COc1cccc([C@@H](Oc2ccc3c(cnn3-c3ccc(F)cc3)c2)[C@H](C)NC(=O)c2cc(C)c(C)s2)c1 [Example 291]", "IC50": "6.4 nM"}
{"MOLECULE": "CCOC(=O)CNC(=O)N[C@@H](C)[C@H](Oc1ccc2c(cnn2-c2ccc(F)cc2)c1)c1ccccc1 [Example 106]", "IC50": "3.7 nM"}
{"MOLECULE": "C[C@H](NC(=O)C(C)(C)F)[C@H](Oc1ccc2c(cnn2-c2ccc(F)cc2)c1)c1cccc(F)c1 [Example 243]", "IC50": "5.5 nM"}
{"MOLECULE": "COc1cccc([C@@H](Oc2ccc3c(cnn3-c3ccc(F)cc3)c2)[C@H](C)NC(=O)c2nc[nH]n2)c1 [Example 281]", "IC50": "3.8 nM"}
{"MOLECULE": "CC[C@H](NC(=O)CO)[C@H](Oc1ccc2c(cnn2-c2ccc(F)cc2)c1)c1cccc(OC)c1 [Example 97]", "IC50": "3.3 nM"}
{"MOLECULE": "Cc1ccc([C@@H](Oc2ccc3c(cnn3-c3ccc(F)cc3)c2)[C@H](C)NC(=O)C2(C)CC2)cc1F [Example 213]", "IC50": "4.4 nM"}
